Origin of values: patent US20260132140A1

ASSAYED TARGET: human Chk1 kinase (Homo sapiens, UniProt O14757)
Sequence (O14757 whole entry): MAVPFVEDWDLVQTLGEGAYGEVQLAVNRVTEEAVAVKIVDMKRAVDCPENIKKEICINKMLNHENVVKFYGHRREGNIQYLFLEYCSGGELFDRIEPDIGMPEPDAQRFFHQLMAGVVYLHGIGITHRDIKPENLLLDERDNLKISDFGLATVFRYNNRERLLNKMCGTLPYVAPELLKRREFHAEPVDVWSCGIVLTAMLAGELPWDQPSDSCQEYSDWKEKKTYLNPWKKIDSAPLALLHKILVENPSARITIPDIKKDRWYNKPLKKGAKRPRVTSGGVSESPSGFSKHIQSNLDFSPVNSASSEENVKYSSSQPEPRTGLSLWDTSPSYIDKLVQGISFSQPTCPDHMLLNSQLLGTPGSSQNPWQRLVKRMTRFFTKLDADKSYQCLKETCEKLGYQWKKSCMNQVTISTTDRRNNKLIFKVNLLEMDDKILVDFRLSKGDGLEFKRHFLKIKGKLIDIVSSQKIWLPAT
pIC50: −log10 of the molar value.
MEASURED ENDPOINT: pIC50

Worked cases, answers included:
Cc1ccc(-n2cnc(Nc3cnc(C#N)cn3)c2)cc1N1CC[C@@H](N(C)C)C1
7.00 to 7.50
COc1cc(N2C[C@H]3CCN(C)[C@H]3C2)ccc1-n1cnc(Nc2cnc(C#N)cn2)c1
7.50 to 8.00
C[C@H]1CCN1C1CCN(c2ccc(-n3cnc(Nc4cnc(C#N)cn4)c3)cc2)C1 (single isomer, unassigned)
> 8.00

Go through the items and report each one's pIC50.
1. CCN1CCN(c2ccc(-n3cnc(Nc4cnc(C#N)cn4)c3)c(OC)c2)CC1
2. CC(C)N1CCN(c2ccc(-n3cnc(Nc4cnc(C#N)cn4)c3)cc2)CC1
3. CCN(C)[C@@H]1CCN(c2ccc(-n3cnc(Nc4cnc(C#N)cn4)c3)nc2)C1
4. CN(C)[C@@H]1CCN(c2cnc(-n3cnc(Nc4cnc(C#N)cn4)c3)nc2)C1
5. CN1C[C@@H]2CN(c3ccc(-n4cnc(Nc5cnc(C#N)cn5)c4)c(F)c3)[C@@H]2C1
6. Cc1cc(CN2CC[C@@H](F)C2)cc(C)c1-n1cnc(Nc2cnc(C#N)cn2)c1

> 8.00
6.50 to 7.00
7.50 to 8.00
7.00 to 7.50
7.00 to 7.50
6.00 to 6.50

Could I get pIC50 for every one of these entries?
1. CN(C)[C@]1(C)CCN(c2ccc(-n3cnc(Nc4cnc(C#N)cn4)c3)cc2)C1
2. C[C@@H]1CN(c2ccc(-n3cnc(Nc4cnc(C#N)cn4)c3)cc2)C[C@@H]1N(C)C
3. N#Cc1cnc(Nc2cn(-c3ccc(N4CC(CN)C4)cc3)cn2)cn1
4. N#Cc1cnc(Nc2cn(-c3ccc(N4CC[C@@H](NCCC(F)(F)F)C4)cn3)cn2)cn1
5. N#Cc1cnc(Nc2cn(-c3ccc(N4CCC(N5CCC5)C4)cc3)cn2)cn1 (single isomer, unassigned) [Example 113]
6. N#Cc1cnc(Nc2cn(-c3ccc(N4C[C@@H](F)[C@@H](N)C4)cc3)cn2)cn1

1. > 8.00
2. 7.50 to 8.00
3. 7.50 to 8.00
4. 7.50 to 8.00
5. 7.50 to 8.00
6. > 8.00

Give the reported pIC50 for `Cc1cc(CN2CC[C@@H](F)C2)cc(C(F)(F)F)c1-n1cnc(Nc2cnc(C#N)cn2)c1` (system: human Chk1 kinase (Homo sapiens, UniProt O14757)).
6.50 to 7.00

---

Answer each item with its documented pIC50.
ASSAYED TARGET: human Chk2 kinase (Homo sapiens)
TEST SUMMARY: biochemical
pIC50: −log10 of the molar value.

C[C@H]1CCN1C1CCN(c2ccc(-n3cnc(Nc4cnc(C#N)cn4)c3)cc2)C1 (single isomer, unassigned) [Example 138]
5.00 to 6.00
CN1CCN(c2ccc(-n3cnc(Nc4cnc(C#N)cn4)c3)cc2)CC1(C)C
4.00 to 5.00

For every record below, what is its pIC50?
1. C[C@H]1CCN1C1CCN(c2ccc(-n3cnc(Nc4cnc(C#N)cn4)c3)cc2)C1 (single isomer, unassigned) [Example 137]
2. COc1cc(OC2CC3(C2)CN(C)C3)ccc1-n1cnc(Nc2cnc(C#N)cn2)c1

1. < 4.00
2. 4.00 to 5.00

For each of the molecules below, state pIC50.
1. N#Cc1cnc(Nc2cn(-c3ccc(N4CC[C@@H](NCCC(F)(F)F)C4)cn3)cn2)cn1
2. N#Cc1cnc(Nc2cn(-c3ccc(N4CCC(N5CCC5)C4)cc3)cn2)cn1 (single isomer, unassigned) [Example 114]
3. CCCN1CC(Oc2cccc(-n3cnc(Nc4cnc(C#N)cn4)c3)c2)C1
4. N#Cc1cnc(Nc2cn(-c3ccc(CN4CC[C@@H](F)C4)c(Cl)c3)cn2)cn1
5. Cc1cc(-n2cnc(Nc3cnc(C#N)cn3)c2)ccc1N1CCN(C)CC1
6. CCN(C)[C@@H]1CCN(c2ccc(-n3cnc(Nc4cnc(C#N)cn4)c3)cc2)C1
7. CC1(C)CCN1C1CCN(c2ccc(-n3cnc(Nc4cnc(C#N)cn4)c3)cc2)C1 (single isomer, unassigned) [Example 139]

["< 4.00", "5.00 to 6.00", "< 4.00", "< 4.00", "4.00 to 5.00", "5.00 to 6.00", "< 4.00"]

Batch request: pIC50 for each of the following molecules.
1. N#Cc1cnc(Nc2cn(-c3ccc(N4CC[C@@H](N)C4)cc3)cn2)cn1
2. COc1cc(CN2CCCC2)ccc1-n1cnc(Nc2cnc(C#N)cn2)c1
3. CN1C[C@@H]2CC[C@H]1CN2c1ccc(-n2cnc(Nc3cnc(C#N)cn3)c2)cc1
4. CN1C[C@H]2CN(c3ccc(-n4cnc(Nc5cnc(C#N)cn5)c4)cc3)[C@H]2C1
5. COc1cc(NC2CCN(C)CC2)ccc1-n1cnc(Nc2cnc(C#N)cn2)c1

1. 5.00 to 6.00
2. 4.00 to 5.00
3. 4.00 to 5.00
4. 4.00 to 5.00
5. 4.00 to 5.00

---

ASSAYED TARGET: BCRP (Homo sapiens)
Sequence (Q9UNQ0 whole entry, species assumed): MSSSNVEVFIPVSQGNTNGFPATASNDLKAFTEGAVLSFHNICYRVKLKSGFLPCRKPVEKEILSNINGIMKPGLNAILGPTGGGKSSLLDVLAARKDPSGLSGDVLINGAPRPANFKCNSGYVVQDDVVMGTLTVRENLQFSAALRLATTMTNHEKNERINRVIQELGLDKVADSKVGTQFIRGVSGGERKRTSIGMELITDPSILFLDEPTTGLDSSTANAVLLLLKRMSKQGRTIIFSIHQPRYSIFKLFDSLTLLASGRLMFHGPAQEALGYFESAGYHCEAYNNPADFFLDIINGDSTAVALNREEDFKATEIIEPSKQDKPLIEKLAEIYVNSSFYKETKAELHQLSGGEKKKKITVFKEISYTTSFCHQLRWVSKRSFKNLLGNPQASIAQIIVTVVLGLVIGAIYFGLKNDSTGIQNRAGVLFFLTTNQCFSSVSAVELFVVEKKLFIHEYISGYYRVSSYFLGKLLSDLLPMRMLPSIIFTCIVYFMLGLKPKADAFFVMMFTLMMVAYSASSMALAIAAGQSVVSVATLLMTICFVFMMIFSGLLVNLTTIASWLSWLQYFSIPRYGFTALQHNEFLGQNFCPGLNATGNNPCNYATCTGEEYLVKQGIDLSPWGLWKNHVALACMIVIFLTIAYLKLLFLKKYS
TEST SUMMARY: in vitro
CONDITION CONTEXT: dog, pH 7.4
MEASURED ENDPOINT: efflux ratio at 60 min, 1 μM
Give bare numbers.

COc1cc(C2(F)CCN(C)CC2)ccc1-c1cc(Nc2cnc(C#N)cn2)n[nH]1 [Comparator Ex. 4, reference compound]
12
N#Cc1cnc(Nc2cn(-c3ccc(N4CCN(CCF)CC4)cc3)cn2)cn1 [Example 183]
1.4

// switching to the query compound
I am curious: what efflux ratio at 60 min, 1 μM value has been reported for N#Cc1cnc(Nc2cn(-c3ccc(N4CCN(CCC(F)(F)F)CC4)cc3)cn2)cn1 [Example 184] ?
1.1

---

Observed log10 of IC50 for RSK2 (Homo sapiens), reported per entry below.
A difference of one corresponds to tenfold IC50; all values are log10 with IC50 in µM.

N#Cc1cnc(Nc2cn(-c3ccccc3OCCCN)cn2)cn1
0.85
CN(C)[C@@H]1CCN(c2ccc(-n3cnc(Nc4cnc(C#N)cn4)c3)cc2)C1
0.82
CN1CCN(c2ccc(-n3cnc(Nc4cnc(C#N)cn4)c3)cc2)CC1
0.48
CN1CCC12CN(c1ccc(-n3cnc(Nc4cnc(C#N)cn4)c3)cc1)C2
0.43
CN1CCC(F)(c2ccc(-n3cnc(Nc4cnc(C#N)cn4)c3)cc2)CC1
0.39
C[C@@H]1C[C@@H](N2CCC2)CN1c1ccc(-n2cnc(Nc3cnc(C#N)cn3)c2)cc1
-0.10
COc1cc(C2(F)CCN(C)CC2)ccc1-c1cc(Nc2cnc(C#N)cn2)n[nH]1 [Comparator Ex. 4, reference compound]
-1.23
CN(C)[C@@H]1CCN(c2ccc(-n3cnc(Nc4cnc(C#N)cn4)c3)nc2)C1
0.82
CCNCc1ccc(-c2cc(Nc3cnc(C#N)cn3)n[nH]2)c(OC)c1 [Comparator Ex. 3, reference compound]
-0.76
COc1cccc(OCCCN)c1-c1cc(Nc2cnc(C#N)cn2)n[nH]1 [Comparator Ex. 1, reference compound]
-2.70

Given the entry COc1cc(N2CCN(C)CC2)ccc1-c1cc(Nc2cnc(C#N)cn2)n[nH]1 [Comparator Ex. 2, reference compound] , report its measured log10 of IC50.
-1.10

---

ASSAYED TARGET: human Chk1 kinase (Homo sapiens, UniProt O14757)
Would you kindly list IC50 for each of these compounds?

Use the examples below as a reference point.
N#Cc1cnc(Nc2cn(-c3ccc(CN4CCOCC4)cc3)cn2)cn1
100 to 316 nM
N#Cc1cnc(Nc2cn(-c3cccc(N4CCN5CCC[C@H]5C4)c3)cn2)cn1
31.6 to 100 nM
N#Cc1cnc(Nc2cn(-c3ccc(N4CCC(N5CC6(CCC6)C5)C4)cc3)cn2)cn1 (single isomer, unassigned)
10 to 31.6 nM

Quick one: IC50 for CN(C)C1CCCN(c2cccc(-n3cnc(Nc4cnc(C#N)cn4)c3)c2)C1 (single isomer, unassigned) ?
31.6 to 100 nM

---

ASSAYED TARGET: human Chk2 kinase (Homo sapiens, UniProt O96017)
Sequence (O96017 whole entry): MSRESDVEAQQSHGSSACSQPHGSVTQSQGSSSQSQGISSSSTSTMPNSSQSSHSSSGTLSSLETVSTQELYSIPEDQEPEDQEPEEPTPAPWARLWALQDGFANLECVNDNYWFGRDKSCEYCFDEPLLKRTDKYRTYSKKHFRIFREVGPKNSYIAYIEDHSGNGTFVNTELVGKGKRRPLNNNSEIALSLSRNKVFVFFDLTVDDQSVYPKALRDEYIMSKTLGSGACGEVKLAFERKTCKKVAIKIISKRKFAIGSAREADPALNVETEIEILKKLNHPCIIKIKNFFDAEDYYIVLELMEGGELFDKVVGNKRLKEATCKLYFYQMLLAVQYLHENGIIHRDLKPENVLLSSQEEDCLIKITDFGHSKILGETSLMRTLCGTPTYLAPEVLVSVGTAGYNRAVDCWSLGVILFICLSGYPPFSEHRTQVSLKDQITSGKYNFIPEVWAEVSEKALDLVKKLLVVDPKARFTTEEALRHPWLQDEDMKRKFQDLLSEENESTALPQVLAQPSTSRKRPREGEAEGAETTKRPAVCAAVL
TEST SUMMARY: biochemical
pIC50: −log10 of the molar value.
Could you please report measured pIC50 for the items listed next?

Example cases with answers are listed next.
C[C@@H]1CN(C)CCN1c1ccc(-n2cnc(Nc3cnc(C#N)cn3)c2)cc1
4.00 to 5.00
Cc1nc(-n2cnc(Nc3cnc(C#N)cn3)c2)ccc1N1CC[C@@H](N(C)C)C1
5.00 to 6.00

Batch request: pIC50 per item, same order as input.
1. N#Cc1cnc(Nc2cn(-c3ccc(N4CC5(CCN5)C4)cc3)cn2)cn1
2. CN(C)C1CCCN(c2ccc(-n3cnc(Nc4cnc(C#N)cn4)c3)cc2)C1 (single isomer, unassigned) [Example 122]
3. COc1cc(CN2CCC(F)(F)CC2)ccc1-n1cnc(Nc2cnc(C#N)cn2)c1
4. C[C@@]1(N)CCN(c2ccc(-n3cnc(Nc4cnc(C#N)cn4)c3)cc2)C1
5. CN(C)C1CN(c2ccc(-n3cnc(Nc4cnc(C#N)cn4)c3)cc2)C1
6. CN1CCN(c2ccc(-n3cnc(Nc4cnc(C#N)cn4)c3)cn2)CC1

5.00 to 6.00
4.00 to 5.00
4.00 to 5.00
4.00 to 5.00
< 4.00
4.00 to 5.00
